// data source = patent US20250345277A1

# Tested on: DC2.4 cells
# Method: In vitro transfection of DC2.4 cells with EGFP mRNA LNP preparation (flow cytometry)
# Assay type: cell-based, mouse
# Experimental Context: DC2.4 cells, EGFP mRNA LNP, 200 ng mRNA per well, flow cytometry
Measured Endpoint: Positive Rate (EGFP) (%)

1) CCCCCCCCCCCCC(O)CN(CCOCCOCCOCCN(CCOCCOCCOCCN(CC(O)CCCCCCCCCCCC)CC(O)CCCCCCCCCCCC)CCN1CCN(CCO)CC1)CC(O)CCCCCCCCCCCC (centres unmarked) : 60.0
2) CCCCCCCCCCCCC(O)CN(CCOCCN(CCOCCN(CC(O)CCCCCCCCCCCC)CC(O)CCCCCCCCCCCC)CCN1CCN(C)CC1)CC(O)CCCCCCCCCCCC (centres unmarked) : 73.5
3) CCCCCCCCCCCCCCC(O)CN(CCOCCOCCOCCN(CCOCCOCCOCCN(CC(O)CCCCCCCCCCCCCC)CC(O)CCCCCCCCCCCCCC)CCN1CCN(C)CC1)CC(O)CCCCCCCCCCCCCC (centres unmarked) : 59.0
4) CCCCCCCCCCCCCCCCC(O)CN(CCN1CCN(CCN(CCN(CC(O)CCCCCCCCCCCCCCCC)CC(O)CCCCCCCCCCCCCCCC)CCN(CC(O)CCCCCCCCCCCCCCCC)CC(O)CCCCCCCCCCCCCCCC)CC1)CC(O)CCCCCCCCCCCCCCCC (centres unmarked) : 61.9
5) CCCCCCCCCCC(O)CN(CCOCCN(CCOCCN(CC(O)CCCCCCCCCC)CC(O)CCCCCCCCCC)CCN1CCN(C)CC1)CC(O)CCCCCCCCCC (centres unmarked) : 63.9

----------
# Tested on: PBMC cells
# Method: In vitro transfection of PBMC cells with EGFP mRNA LNP preparation (flow cytometry)
# Type: cell-based
# Design: concentration or dose not given beside the values
# Experimental Context: PBMCs, LNP preparation added with ApoE4
Measured Endpoint: Cell Viability (%)

1. CCCCCCCCCCCCCCC(O)CN(CCOCCOCCOCCN(CCOCCOCCOCCN(CC(O)CCCCCCCCCCCCCC)CC(O)CCCCCCCCCCCCCC)CCN1CCN(CCOCCOCCOCCN(CC(O)CCCCCCCCCCCCCC)CC(O)CCCCCCCCCCCCCC)CC1)CC(O)CCCCCCCCCCCCCC (stereo not shown) : 82.20
2. CCCCCCCCCCCCC(O)CN(CCOCCOCCOCCN(CCOCCOCCOCCN(CC(O)CCCCCCCCCCCC)CC(O)CCCCCCCCCCCC)CCN1CCN(CCOCCOCCOCCN(CC(O)CCCCCCCCCCCC)CC(O)CCCCCCCCCCCC)CC1)CC(O)CCCCCCCCCCCC (stereo not shown) : 88.70
3. CCCCCCCCCCCCC(O)CN(CCOCCOCCN(CCOCCOCCN(CC(O)CCCCCCCCCCCC)CC(O)CCCCCCCCCCCC)CCN1CCN(C)CC1)CC(O)CCCCCCCCCCCC (stereo not shown) : 79.40
4. CCCCCCCCCCCCCCC(O)CN(CCN1CCN(CCN(CCN(CC(O)CCCCCCCCCCCCCC)CC(O)CCCCCCCCCCCCCC)CCN(CC(O)CCCCCCCCCCCCCC)CC(O)CCCCCCCCCCCCCC)CC1)CC(O)CCCCCCCCCCCCCC (stereo not shown) : 90.00

----------
# Entrapment Efficiency per record follows
# Method: Entrapment efficiency of LNP preparation encapsulating EGFP mRNA
# Format: physicochemical
# Experimental Context: LNP ionizable lipid/DOPE/cholesterol/DSPE-PEG2000 35/16/46.5/2.5 mol% encapsulating EGFP mRNA
Measured Endpoint: Entrapment Efficiency (%)

1. CCCCCCCCCCC(O)CN(CCOCCOCCOCCN(CCOCCOCCOCCN(CC(O)CCCCCCCCCC)CC(O)CCCCCCCCCC)CCN1CCN(CCOCCOCCOCCN(CC(O)CCCCCCCCCC)CC(O)CCCCCCCCCC)CC1)CC(O)CCCCCCCCCC [D-C12] : 91.80
2. CCCCCCCCCCCCCCCCC(O)CN(CCOCCOCCOCCN(CCOCCOCCOCCN(CC(O)CCCCCCCCCCCCCCCC)CC(O)CCCCCCCCCCCCCCCC)CCN1CCN(CCO)CC1)CC(O)CCCCCCCCCCCCCCCC [L-C18] : 91.70
3. CCCCCCCCCCCCCCCCC(O)CN(CCOCCN(CCOCCN(CC(O)CCCCCCCCCCCCCCCC)CC(O)CCCCCCCCCCCCCCCC)CCN1CCN(C)CC1)CC(O)CCCCCCCCCCCCCCCC (centres unmarked) [F-C18] : 80.61
4. CCCCCCCCCCCCC(O)CN(CCOCCN(CCOCCN(CC(O)CCCCCCCCCCCC)CC(O)CCCCCCCCCCCC)CCN1CCN(C)CC1)CC(O)CCCCCCCCCCCC (centres unmarked) [F-C14] : 95.21
5. CCCCCCCCCCCCC(O)CN(CCOCCOCCN(CCOCCOCCN(CC(O)CCCCCCCCCCCC)CC(O)CCCCCCCCCCCC)CCN1CCN(CCO)CC1)CC(O)CCCCCCCCCCCC (centres unmarked) [K-C14] : 87.00
6. CCCCCCCCCCCCCCC(O)CN(CCOCCOCCOCCN(CCOCCOCCOCCN(CC(O)CCCCCCCCCCCCCC)CC(O)CCCCCCCCCCCCCC)CCN1CCN(C)CC1)CC(O)CCCCCCCCCCCCCC (centres unmarked) [H-C16] : 86.56
7. CCCCCCCCCCCCCCC(O)CN(CCOCCN(CCOCCN(CC(O)CCCCCCCCCCCCCC)CC(O)CCCCCCCCCCCCCC)CCN1CCN(CCO)CC1)CC(O)CCCCCCCCCCCCCC (centres unmarked) [J-C16] : 81.08
8. CCCCCCCCCCCCC(O)CN(CCN(CCN1CCN(C)CC1)CCN(CC(O)CCCCCCCCCCCC)CC(O)CCCCCCCCCCCC)CC(O)CCCCCCCCCCCC (centres unmarked) [E-C14] : 85.62
9. CCCCCCCCCCCCC(O)CN(CCOCCN(CCOCCN(CC(O)CCCCCCCCCCCC)CC(O)CCCCCCCCCCCC)CCN1CCN(CCO)CC1)CC(O)CCCCCCCCCCCC (centres unmarked) [J-C14] : 83.58
10. CCCCCCCCCCC(O)CN(CCOCCN(CCOCCN(CC(O)CCCCCCCCCC)CC(O)CCCCCCCCCC)CCN1CCN(C)CC1)CC(O)CCCCCCCCCC (centres unmarked) [F-C12] : 92.31
11. CCCCCCCCCCCCCCC(O)CN(CCOCCN(CCOCCN(CC(O)CCCCCCCCCCCCCC)CC(O)CCCCCCCCCCCCCC)CCN1CCN(C)CC1)CC(O)CCCCCCCCCCCCCC (centres unmarked) [F-C16] : 92.39

----------
# PDI per record follows
# Method: Size and polydispersity index PDI of lipid nanoparticles (Malvern Zetasizer Nano ZS)
# Type: physicochemical
# Experimental Context: LNP ionizable lipid/DOPE/cholesterol/DSPE-PEG2000 35/16/46.5/2.5 mol% encapsulating EGFP mRNA
Measured Endpoint: PDI

1) CCCCCCCCCCC(O)CN(CCOCCOCCN(CCOCCOCCN(CC(O)CCCCCCCCCC)CC(O)CCCCCCCCCC)CCN1CCN(CCOCCOCCN(CC(O)CCCCCCCCCC)CC(O)CCCCCCCCCC)CC1)CC(O)CCCCCCCCCC (stereo not drawn) [C-C12] : 0.070
2) CCCCCCCCCCCCCCC(O)CN(CCN(CCN1CCN(CCO)CC1)CCN(CC(O)CCCCCCCCCCCCCC)CC(O)CCCCCCCCCCCCCC)CC(O)CCCCCCCCCCCCCC (stereo not drawn) [I-C16] : 0.147
3) CCCCCCCCCCCCCCC(O)CN(CCOCCOCCOCCN(CCOCCOCCOCCN(CC(O)CCCCCCCCCCCCCC)CC(O)CCCCCCCCCCCCCC)CCN1CCN(C)CC1)CC(O)CCCCCCCCCCCCCC (stereo not drawn) [H-C16] : 0.162

----------
# Method: Size and polydispersity index PDI of lipid nanoparticles (Malvern Zetasizer Nano ZS)
# Format: physicochemical
# Experimental Context: LNP ionizable lipid/DOPE/cholesterol/DSPE-PEG2000 35/16/46.5/2.5 mol% encapsulating EGFP mRNA; in nm (unit assumed)
# Particle Size per record follows
Measured Endpoint: Particle Size

1. CCCCCCCCCCC(O)CN(CCOCCOCCN(CCOCCOCCN(CC(O)CCCCCCCCCC)CC(O)CCCCCCCCCC)CCN1CCN(CCOCCOCCN(CC(O)CCCCCCCCCC)CC(O)CCCCCCCCCC)CC1)CC(O)CCCCCCCCCC (stereo not shown) [C-C12] : 92.5
2. CCCCCCCCCCC(O)CN(CCN1CCN(CCN(CCN(CC(O)CCCCCCCCCC)CC(O)CCCCCCCCCC)CCN(CC(O)CCCCCCCCCC)CC(O)CCCCCCCCCC)CC1)CC(O)CCCCCCCCCC (stereo not shown) [A-C12] : 91.6
3. CCCCCCCCCCC(O)CN(CCOCCN(CCOCCN(CC(O)CCCCCCCCCC)CC(O)CCCCCCCCCC)CCN1CCN(C)CC1)CC(O)CCCCCCCCCC (stereo not shown) [F-C12] : 77.7
4. CCCCCCCCCCCCCCCCC(O)CN(CCOCCN(CCOCCN(CC(O)CCCCCCCCCCCCCCCC)CC(O)CCCCCCCCCCCCCCCC)CCN1CCN(C)CC1)CC(O)CCCCCCCCCCCCCCCC (stereo not shown) [F-C18] : 77.2
5. CCCCCCCCCCCCCCCCC(O)CN(CCOCCOCCN(CCOCCOCCN(CC(O)CCCCCCCCCCCCCCCC)CC(O)CCCCCCCCCCCCCCCC)CCN1CCN(C)CC1)CC(O)CCCCCCCCCCCCCCCC (stereo not shown) [G-C18] : 99.8
6. CCCCCCCCCCCCCCCCC(O)CN(CCOCCOCCOCCN(CCOCCOCCOCCN(CC(O)CCCCCCCCCCCCCCCC)CC(O)CCCCCCCCCCCCCCCC)CCN1CCN(C)CC1)CC(O)CCCCCCCCCCCCCCCC (stereo not shown) [H-C18] : 73.8
7. CCCCCCCCCCC(O)CN(CCN(CCN1CCN(CCO)CC1)CCN(CC(O)CCCCCCCCCC)CC(O)CCCCCCCCCC)CC(O)CCCCCCCCCC (stereo not shown) [I-C12] : 83.8
8. CCCCCCCCCCC(O)CN(CCOCCOCCOCCN(CCOCCOCCOCCN(CC(O)CCCCCCCCCC)CC(O)CCCCCCCCCC)CCN1CCN(C)CC1)CC(O)CCCCCCCCCC (stereo not shown) [H-C12] : 95.9
9. CCCCCCCCCCC(O)CN(CCOCCN(CCOCCN(CC(O)CCCCCCCCCC)CC(O)CCCCCCCCCC)CCN1CCN(CCOCCN(CC(O)CCCCCCCCCC)CC(O)CCCCCCCCCC)CC1)CC(O)CCCCCCCCCC (stereo not shown) [B-C12] : 102.9
10. CCCCCCCCCCCCC(O)CN(CCOCCOCCOCCN(CCOCCOCCOCCN(CC(O)CCCCCCCCCCCC)CC(O)CCCCCCCCCCCC)CCN1CCN(CCOCCOCCOCCN(CC(O)CCCCCCCCCCCC)CC(O)CCCCCCCCCCCC)CC1)CC(O)CCCCCCCCCCCC [D-C14] : 97.2
